target system: Alpha-bungarotoxin (Bungarus multicinctus)
experiment: compounds binding labelled alpha-BTX control protein – biochemical, small-molecule microarray, Alexa647 label, 635/667 nm fluorescence, artefact control for SMM control protein annotation, profiling panel (AID 1117)
conditions: alpha-BTX-A647 binding fluorescence, higher = more signal
What composite z-score was measured for each of the following?
Numbers only.

Below: 5 molecules and their reported composite z-score.
CCCc1cc2c(n1CCO)C(C)C1CN(C(=O)c3ccccc3)C(C)(C(=O)OC)C21 (stereo not given) : 2.61
COC(=O)[C@@]1(Cc2ccccc2)[C@H]2c3cc(C(=O)N(C)C)n(C)c3C[C@H]2CN1C(=O)c1ccccc1 : 0.0882
COC(=O)[C@@]1(Cc2ccccc2)[C@H]2c3cc(C(=O)N(C)C)[nH]c3C[C@H]2CN1C(=O)c1ccccc1 : -0.0856
CCOC(=O)[C@H]1CC=C2C(=O)Oc3ccc(Br)cc3[C@@H]21 : 1.65
CN1CCC(c2ccc(CO)cc2)=CC1c1cccs1 (stereo not given) : 0.945

// input: 5 molecules below; output: composite z-score for each
1. C[C@@H]1Cc2c(cnc3c2CN(C)CC3)CO1
2. c1ccc(-c2cc3c(nc2-c2ccccc2)CCNC3)cc1
3. C=C(CC1(CNP(=O)(c2ccccc2)c2ccccc2)CC1)c1ccccc1
4. CCCC=C(CCC)[C@@H](NP(=O)(c1ccccc1)c1ccccc1)c1ccccc1
5. CN1CCc2nc(CO)c(CO)cc2C1

[-0.138, 0.913, -0.108, 0.44, -0.0299]
